As an illustration, consider measured IC50 for molecules on human PHD2184-418 (Homo sapiens (Human)).
Sequence (Q9GZT9 184-418): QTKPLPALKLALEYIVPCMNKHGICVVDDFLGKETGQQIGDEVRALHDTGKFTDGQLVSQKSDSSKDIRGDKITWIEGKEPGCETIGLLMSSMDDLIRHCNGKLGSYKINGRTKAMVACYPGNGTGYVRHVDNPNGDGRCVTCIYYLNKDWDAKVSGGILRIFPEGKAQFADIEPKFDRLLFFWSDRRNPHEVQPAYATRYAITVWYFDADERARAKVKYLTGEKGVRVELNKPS
One number for each entry, in nM.

Please review the following examples before continuing.
>>> numeric_readout("Cn1ccnc1CN1CC[C@H](n2c(=O)n(-c3ccc(-c4ccc(O)cc4)cc3)c3cccnc32)C1")
360
>>> numeric_readout("Cc1cccnc1CN1CC[C@H](n2c(=O)n(-c3ccc(-c4ccccc4)cc3)c3cccnc32)C1")
8430
>>> numeric_readout("O=C(O)c1ccnc(CN2CC[C@H](n3c(=O)n(-c4ccc(-c5ccc(O)c(C(=O)O)c5)c(O)c4)c4cccnc43)C2)c1")
140
>>> numeric_readout("Cn1ccnc1CN1CC[C@H](n2c(=O)n(-c3ccc(-c4ccc(C(=O)O)cc4O)cc3)c3cccnc32)C1")
970
>>> numeric_readout("O=C(O)c1ccc(-c2ccc(-n3c(=O)n([C@H]4CCN(Cc5cc(C(=O)O)ccn5)C4)c4ncccc43)cn2)cc1")
150

Enquiry: API: value(readout=IC50, system=human PHD2184-418 (Homo sapiens (Human))) for record Cc1ccc(-n2c(=O)n([C@H]3CCN(Cc4ncc(C(=O)O)n4C)C3)c3ncccc32)cc1
Return: 1020

The measured values listed here are drawn from patent US12077531B2.
